tested on: THRa homodimer (NR concentration 90 nM); experiment: PBM binding z-score (relative to random genomic background probes); higher = stronger binding; sequences stand for … in GC…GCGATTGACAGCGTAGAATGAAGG
testReadout: PBM binding z-score

Example results:
residuestring=CAACCTAGGTCACCGGAAGGTCAAAGTCCGCATG testreadout="PBM binding z-score" result=3.03
residuestring=CGAACTAGGTCACCAGGTCAGTGAAGAGGTTGGA testreadout="PBM binding z-score" result=2.72
residuestring=CCTACTGGGCCATTCAGAGGTTATTGATCATATG testreadout="PBM binding z-score" result=0.14
residuestring=CTAAGTAGGTTAAGGGGGTCATTCAGTTTGAAAG testreadout="PBM binding z-score" result=2.28
residuestring=ATATGTAGGTTAGGGGCATTCAGAAAGTAGGGAA testreadout="PBM binding z-score" result=1.35

Record GCTCGGAGGACAAGGTCACAGCTTTGTCCGTAGA ; system THRa homodimer (NR concentration 90 nM); PBM binding z-score = 3.04

THRa homodimer (NR concentration 90 nM) data for TCGAGTAGGATACGGGGGCATTCAGGGATGAAGA ; its PBM binding z-score: 0.629

PBM binding z-score for THRa homodimer (NR concentration 90 nM) with input CGTCCAAGCTCAGCAGGTCAGTGAAAGCGACGTG equals -0.345

Given the sequence AGATGTAGGTTAGGGTCATTCAGAAAGTAGGGAA and test system THRa homodimer (NR concentration 90 nM), the measured PBM binding z-score is 3.4

The reported THRa homodimer (NR concentration 90 nM) PBM binding z-score of ATATGTAGGTTAGGCTCATTCAGAAAGTAGGGAA is -0.237

The sequence CCGAGTAGGTTACGAGGGGGCATACAGTGCGAAT , tested on THRa homodimer (NR concentration 90 nM), showed PBM binding z-score of 0.618

The recorded PBM binding z-score with THRa homodimer (NR concentration 90 nM) for CTATGTTGGTTAAGGGGGTCATTCAGTTTGAAAG was 3.17

Entry CGAACTAGGACATCCAGGACAGTGAATACATTGA ; assay system THRa homodimer (NR concentration 90 nM); PBM binding z-score recorded at 1.4

Tested on THRa homodimer (NR concentration 90 nM), the item CATACAGGGACAGCTAGGCCAGAGTAGGGACGGC showed PBM binding z-score equal to 0.148

// returns PBM binding z-score for CGAACTAGGTCAAATGACAGTGAAAGGCGACGTA with THRa homodimer (NR concentration 90 nM); value = 0.29

Summary line: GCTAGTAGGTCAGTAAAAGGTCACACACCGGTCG , THRa homodimer (NR concentration 90 nM), reported PBM binding z-score = 1.97

Value (PBM binding z-score, THRa homodimer (NR concentration 90 nM)) for record CATAGTTGGTCAAGGTCACACACGCTATAGGTAC = 4.02

Form field PBM binding z-score for item CCTACGGGGCCAAGGTCATTGATCAGTCAAAGCA on THRa homodimer (NR concentration 90 nM): 2.04

Param item: CGAACTCGGTCAAAGGACAGTGAAAGGCGACGTA ; param system: THRa homodimer (NR concentration 90 nM); output PBM binding z-score: -0.276

Result for CGTCAAAGTTCAACTAAGGTAACTTAAAGCACGC , tested on THRa homodimer (NR concentration 90 nM), PBM binding z-score: 1.52

Measured PBM binding z-score for this entry CGAAATAGGTCACCAGGACAGTGAAGAGGTTGGA on THRa homodimer (NR concentration 90 nM): 0.942

The reported measurements were obtained from the supplement of paper PMC6555819.
